Test system: pigweed (Amaranthus retroflexus)
Experiment: Test B pre-/postemergence
Format: in vivo
Conditions: Rate 62 g/ha, Postemergence
Quantity: Plant response rating, Redroot pigweed

[[record]]
compound = "Cc1cnc(-c2ccc(Cl)cc2)nc1Cc1cccc(C#N)c1"
numeric_readout = 1

[[record]]
compound = "Cc1cnc(-n2cnc(C(F)(F)F)c2)nc1Cc1cccc(C(F)(F)F)c1"
numeric_readout = 9

[[record]]
compound = "Cc1cnc(-c2ccc(F)c(Cl)c2)nc1Cc1cccc(C#N)c1"
numeric_readout = 2

[[record]]
compound = "Cc1cnc(-c2ccc(Cl)cc2F)nc1Cc1cccc(C#N)c1"
numeric_readout = 3

[[record]]
compound = "Cc1cnc(-c2ccc(C#N)cc2)nc1Cc1cccc(C#N)c1"
numeric_readout = 0

[[record]]
compound = "Cc1cnc(-c2ccc(C(F)(F)F)cc2)nc1C(C#N)c1cccc(C(F)(F)F)c1 (racemic)"
numeric_readout = 9

[[record]]
compound = "Cc1cnc(-c2ccc(Cl)cc2)nc1Cn1ccc(C(F)(F)F)n1"
numeric_readout = 5

[[record]]
compound = "CCc1cnc(-n2ccc(C(F)(F)F)n2)nc1Cc1cccc(OC(F)(F)F)c1"
numeric_readout = 9

[[record]]
compound = "Cc1cnc(-c2ccccc2F)nc1Cc1cccc(C#N)c1"
numeric_readout = 1

[[record]]
compound = "COC(c1cccc(C(F)(F)F)c1)c1nc(-c2ccc(C(F)(F)F)cc2)ncc1C (racemic)"
numeric_readout = 5

[[record]]
compound = "Cc1cnc(-c2cccc(C(F)(F)F)c2)nc1Cc1cccc(C#N)c1"
numeric_readout = 2

[[record]]
compound = "CCc1cnc(-c2ccc(C(F)(F)F)cc2)nc1Cc1cccc(C(F)(F)F)c1"
numeric_readout = 10

[[record]]
compound = "Cc1cnc(-c2ccc(C(F)(F)F)cc2)nc1Cn1cc(I)cn1"
numeric_readout = 9

[[record]]
compound = "Cc1cnc(-c2ccc(C#N)cc2)nc1Cc1cccc(C(F)(F)F)c1"
numeric_readout = 7


###

# Plant response rating, Soybean per record follows
Test system: soybean (Glycine max)
Test: Test B pre-/postemergence
Format: in vivo
Design: key: 0 is no effect; 10 is complete control
Conditions: Rate 125 g/ha, Preemergence
Quantity: Plant response rating, Soybean

[[record]]
compound = "Cc1cnc(-c2ccc(Cl)c(Cl)c2)nc1Cc1cccc(C#N)c1 [Compound 38]"
quantity = "Plant response rating, Soybean"
numeric_readout = 0

[[record]]
compound = "Cc1cnc(-c2ccc(Cl)cc2)nc1Cc1cccc(C(F)(F)F)c1 [Compound 28]"
quantity = "Plant response rating, Soybean"
numeric_readout = 0

[[record]]
compound = "CCc1cnc(-n2ccc(C(F)(F)F)n2)nc1Cc1cccc(OC(F)(F)F)c1 [Compound 47]"
quantity = "Plant response rating, Soybean"
numeric_readout = 0

[[record]]
compound = "CCc1cnc(-n2ccc(C(F)(F)F)n2)nc1C(=O)c1cccc(C#N)c1 [Compound 72]"
quantity = "Plant response rating, Soybean"
numeric_readout = 3

[[record]]
compound = "Cc1cnc(-n2cnc(C(F)(F)F)c2)nc1C(=O)c1cccc(OC(F)(F)F)c1 [Compound 63]"
quantity = "Plant response rating, Soybean"
numeric_readout = 0

[[record]]
compound = "Cc1cnc(-c2ccc(F)c(Cl)c2)nc1Cc1cccc(C#N)c1 [Compound 40]"
quantity = "Plant response rating, Soybean"
numeric_readout = 0

[[record]]
compound = "Cc1cnc(-n2cnc(C(F)(F)F)n2)nc1C(=O)c1cccc(C(F)(F)F)c1 [Compound 67]"
quantity = "Plant response rating, Soybean"
numeric_readout = 2

[[record]]
compound = "N#Cc1ccc(-c2nccc(C(=O)c3cccc(C(F)(F)F)c3)n2)cc1 [Compound 78]"
quantity = "Plant response rating, Soybean"
numeric_readout = 0

[[record]]
compound = "CCc1cnc(-n2cnc(C(F)(F)F)c2)nc1C(=O)c1cccc(OC(F)(F)F)c1 [Compound 71]"
quantity = "Plant response rating, Soybean"
numeric_readout = 0

[[record]]
compound = "Cc1cnc(-c2ccc(F)cc2F)nc1Cc1cccc(C#N)c1 [Compound 34]"
quantity = "Plant response rating, Soybean"
numeric_readout = 0

[[record]]
compound = "Cc1cnc(-c2cccc(C(F)(F)F)c2)nc1Cc1cccc(C#N)c1 [Compound 39]"
quantity = "Plant response rating, Soybean"
numeric_readout = 0

[[record]]
compound = "COc1cnc(-n2ccc(C(F)(F)F)n2)nc1C(=O)c1cccc(C(F)(F)F)c1 [Compound 60]"
quantity = "Plant response rating, Soybean"
numeric_readout = 0

[[record]]
compound = "Cc1cnc(-c2ccc(C#N)cc2)nc1Cc1cccc(C#N)c1 [Compound 36]"
quantity = "Plant response rating, Soybean"
numeric_readout = 0

[[record]]
compound = "CCc1cnc(-n2cnc(C(F)(F)F)n2)nc1Cc1cccc(OC(F)(F)F)c1 [Compound 50]"
quantity = "Plant response rating, Soybean"
numeric_readout = 1

